B1: library; a variant is named by its letters at N, in order (parent)
chain: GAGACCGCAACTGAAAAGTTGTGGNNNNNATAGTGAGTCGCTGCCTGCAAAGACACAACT

- Variants of: B1
- test-method-notes: ligation selection enrichment (abundance after / before one-round selection) (fold); higher = more template-directed ligation activity
- condition-summary: with T7Psub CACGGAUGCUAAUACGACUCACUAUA; MgCl2 25 mM; 42 °C; 4 h; pH 8.5
Decide by ligation selection enrichment: equal to or exceeding 0.2 means yes (1), less means no (0).

>>> print(df.to_string())
     var  answer_label
0  GTAGT        no (0)
1  CCCTA        no (0)
2  CACCC        no (0)
3  AGTGA       yes (1)
4  TACAA       yes (1)
